target: Gal3S6S(b1-4)GlcNAc; assay: glycan array binding signal (z-score within array); higher = stronger binding; settings: glycan notation: IUPAC condensed, linker removed
The entries come from a sample that favours the strongest signals as a whole.
Reported glycan array binding signal (z-score) values follow for various binders
Give the value as a plain number.

Exam item: Need glycan array binding signal (z-score) of Gal 3C (Homo sapiens), P17931 (protein) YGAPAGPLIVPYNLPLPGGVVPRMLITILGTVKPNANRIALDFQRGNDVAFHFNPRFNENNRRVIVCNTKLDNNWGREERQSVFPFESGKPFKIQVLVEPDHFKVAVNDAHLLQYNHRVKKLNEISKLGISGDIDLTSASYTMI , thanks.
Marked response: -0.289

Exam item: Need glycan array binding signal (z-score) of SUN4 (Saccharomyces cerevisiae), P53616 (protein) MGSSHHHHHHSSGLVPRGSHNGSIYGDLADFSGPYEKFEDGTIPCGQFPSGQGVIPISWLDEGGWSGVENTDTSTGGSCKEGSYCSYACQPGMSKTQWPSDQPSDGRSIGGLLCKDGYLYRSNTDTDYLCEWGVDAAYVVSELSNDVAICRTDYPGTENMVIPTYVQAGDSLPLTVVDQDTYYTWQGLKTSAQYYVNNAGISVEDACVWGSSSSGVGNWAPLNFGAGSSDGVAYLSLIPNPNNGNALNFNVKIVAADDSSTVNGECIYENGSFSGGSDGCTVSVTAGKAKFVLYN , thanks.
Marked response: 2.2

Exam item: Need glycan array binding signal (z-score) of MAL-II (Maackia amurensis), P93248 (protein) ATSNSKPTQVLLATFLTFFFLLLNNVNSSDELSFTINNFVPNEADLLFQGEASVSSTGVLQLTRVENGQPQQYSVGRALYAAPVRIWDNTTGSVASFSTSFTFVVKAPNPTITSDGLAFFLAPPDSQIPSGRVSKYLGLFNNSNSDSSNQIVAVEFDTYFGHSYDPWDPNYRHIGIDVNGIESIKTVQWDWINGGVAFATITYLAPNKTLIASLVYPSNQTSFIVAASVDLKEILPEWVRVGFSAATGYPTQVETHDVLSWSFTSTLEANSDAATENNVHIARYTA , thanks.
Marked response: -0.222
